Each entry below carries its reported Binding of PCNA Mutants to Target Partners: Rad30 (Y2H).
- System: Rad30
- assay_protocol: Yeast two hybrid (Y2H) analysis of PCNA-partner interaction
- Type: binding
- conditions: YRG2 strain, growth on selective agar plates lacking histidine; growth similar to WT PCNA denoted as 1
Please reply with the number alone, leaving off any unit.

>>> reading("pol30-Rad27E6: PCNA mutant evolved for Rad27, IDCL sequence DGDYDILKIREL (protein, left off: Gal4 activation domain, end not stated, kept) MLEAKFEEASLFKRIIDGFKDCVQLVNFQCKEDGIIAQAVDDSRVLLVSLEIGVEAFQEYRCDHPVTLGMDLTSLSKILRCGNNTDTLTLIADNTPDSIILLFEDTKKDRIAEYSLKLMDGDYDILKIRELQYDSTLSLPSSEFSKIVRDLSQLSDSINIMITKETIKFVADGDIGSGSVIIKPFVDMEHPETSIKLEMDQPVDLTFGAKYLLDIIKGSSLSDRVGIRLSSEAPALFQFDLKSGFLQFFLAPKFNDEE")
1

Problem: For the molecule pol30-Pol32E9 (protein, left off: Gal4 activation domain, end not stated, kept) MLEAKFEEASLFKRIIDGFKDCVQLVNFQCKEDGIIAQAVDDSRVLLVSLEIGVEAFQEYRCDHPVTLGMDLTSLSKILRCGNNTDTLTLIADNTPDSIILLFEDTKKDRIAEYSLKLMDNDVDSLKIIELQYDSTLSLPSSEFSKIVRDLSQLSDSINIMITKETIKFVADGDIGSGSVIIKPFVDMEHPETSIKLEMDQPVDLTFGAKYLLDIIKGSSLSDRVGIRLSSEAPALFQFDLKSGFLQFFLAPKFNDEE , what Binding of PCNA Mutants to Target Partners: Rad30 (Y2H) is on record?
Solution: 1

Problem: For the molecule pol30-Msh6E2: PCNA mutant evolved for Msh6, IDCL sequence DYDRDMLKISEL (protein, left off: Gal4 activation domain, end not stated, kept) MLEAKFEEASLFKRIIDGFKDCVQLVNFQCKEDGIIAQAVDDSRVLLVSLEIGVEAFQEYRCDHPVTLGMDLTSLSKILRCGNNTDTLTLIADNTPDSIILLFEDTKKDRIAEYSLKLMDYDRDMLKISELQYDSTLSLPSSEFSKIVRDLSQLSDSINIMITKETIKFVADGDIGSGSVIIKPFVDMEHPETSIKLEMDQPVDLTFGAKYLLDIIKGSSLSDRVGIRLSSEAPALFQFDLKSGFLQFFLAPKFNDEE , what Binding of PCNA Mutants to Target Partners: Rad30 (Y2H) is on record?
Solution: 1
